Where do the numbers come from? From patent US20260327264A1.

log10 of IC50 by entry:
- System: IL-23 mediated STAT3 signalling (DB cells)
- ASSAY NOTES: Functional inhibition of IL-23 mediated STAT3 signalling (phospho-STAT3 Tyr705) in DB cells
- Format: cell-based, human
- COND: Table 3-2, EC80 of hIL-23, read-out: hIL-23 (pSTAT3) antagonist IC50
*1 amine or outer side, *2 acyl side, *3 side chain or, on linkers, in order; H or OH if unused. Where a SMILES comes first, the peptide text is derived from it. Bridges are numbered along the chain shown (N, C = ends). [ ]: non-standard residue; d: D form. 2Nal = N[C@@H](Cc1ccc2ccccc2c1)C(=O)O; AEF = NCCOc1ccc(C[C@H](N)C(=O)O)cc1; X1 = O=C(Cc1ccc(CN[*:1])cc1)[*:2]; 3Pal = N[C@@H](Cc1cccnc1)C(=O)O; Cit = NC(=O)NCCC[C@H](N)C(=O)O; αMeL = CC(C)C[C@](C)(N)C(=O)O; Dab = NCC[C@H](N)C(=O)O
Log10 applied to IC50; unit prior to transform: nM.

Some solved cases for reference:
{"columns": ["COMPOUND", "ASSAYED SYSTEM", "EXPERIMENTAL VALUE"],
 "data": [
  ["CNC(=O)[C@H](Cc1cccnc1)NC(=O)[C@H](CCN)NC(=O)[C@@H]1CCC(=O)NCc2ccc(cc2)CC(=O)N[C@@H](CO)C(=O)N[C@H]2CCC(=O)NCC[C@H](NC(=O)[C@H](CCCNC(N)=O)NC(=O)[C@H](Cc3c[nH]c4ccccc34)NC2=O)C(=O)N[C@@H](Cc2ccc(OCCN)cc2)C(=O)N[C@@H](Cc2ccc3ccccc3c2)C(=O)N[C@@](C)(CC(C)C)C(=O)N1 [Compound 26] ([X1]SEW[Cit][Dab][AEF][2Nal][αMeL]E[Dab][3Pal]-NHMe; lactam 3-6, N-10)", "IL-23 mediated STAT3 signalling (DB cells)", -1.38],
  ["CC(C)C[C@]1(C)NC(=O)[C@H](Cc2ccc3ccccc3c2)NC(=O)[C@H](Cc2ccc(OCCN)cc2)NC(=O)[C@@H]2CCNC(=O)CC[C@H](NC(=O)[C@H](CO)NC(=O)Cc3ccc(cc3)CNC(=O)CC[C@@H](C(=O)N[C@@H](CCN)C(=O)N[C@@H](Cc3cn(C)cn3)C(N)=O)NC1=O)C(=O)N[C@@H](Cc1c[nH]c3ccccc13)C(=O)N[C@@H](CCC(N)=O)C(=O)N2", "IL-23 mediated STAT3 signalling (DB cells)", 0.86],
  ["CNC(=O)[C@H](Cc1cccnc1)NC(=O)[C@H](CCN)NC(=O)[C@@H]1CCC(=O)NCc2ccc(cc2)CC(=O)N[C@@H](CO)C(=O)N[C@H]2CCC(=O)NCC[C@H](NC(=O)[C@H](CCC(=O)N(C)C)NC(=O)[C@H](Cc3c[nH]c4ccccc34)NC2=O)C(=O)N[C@@H](Cc2ccc(OCCN)cc2)C(=O)N[C@@H](Cc2ccc3ccccc3c2)C(=O)N[C@@](C)(CC(C)C)C(=O)N1 [Compound 30] ([X1]SEWE(NMe2)[Dab][AEF][2Nal][αMeL]E[Dab][3Pal]-NHMe; lactam 3-6, N-10)", "IL-23 mediated STAT3 signalling (DB cells)", -1.11],
  ["CNC(=O)[C@H](Cc1cccnc1)NC(=O)[C@H](CCO)NC(=O)[C@@H]1CCC(=O)NCc2ccc(cc2)CC(=O)N[C@@H](CO)C(=O)N[C@H]2CCC(=O)NCC[C@H](NC(=O)[C@H](CCC(N)=O)NC(=O)[C@H](Cc3c[nH]c4ccccc34)NC2=O)C(=O)N[C@@H](Cc2ccc(OCCN)cc2)C(=O)N[C@@H](Cc2ccc3ccccc3c2)C(=O)N[C@@](C)(CC(C)C)C(=O)N1", "IL-23 mediated STAT3 signalling (DB cells)", -1.47]
]}

Problem: Which log10 of IC50 is listed for CC(C)C[C@]1(C)NC(=O)[C@H](Cc2ccc3ccccc3c2)NC(=O)[C@H](Cc2ccc(OCCN)cc2)NC(=O)[C@@H]2CCNC(=O)CC[C@H](NC(=O)[C@H](CO)NC(=O)Cc3ccc(cc3)CNC(=O)CC[C@@H](C(=O)N[C@@H](CCN)C(N)=O)NC1=O)C(=O)N[C@@H](Cc1c[nH]c3ccccc13)C(=O)N[C@@H](CCC(N)=O)C(=O)N2 [Ref 125, reference compound] ?
Solution: 1.32

* * *

- ASSAY NOTES: Peptide stability in simulated gastric fluid (SGF)
- Type: in vitro ADME
- COND: pig, 4 h, pH 1.2, pepsin, 37° C.
- Procedure: SGF and SIF were prepared based on the United States Pharmacopeia specifications (Test Solutions, United States Pharmacopeia 35, NF 30, 2012). SGF was prepared by dissolving sodium chloride (0.2 g) in 50 mL of water. A volume of 0.7 mL of 10 M HCl was added to adjust the pH of the solution to 1.2 and the volume made up to 100 mL with water. 64 mg porcine pepsin (P7125, Sigma Aldrich) was gently dissolved into 20 mL preheated (37° C.) solution (3.2 g/L) immediately prior to the incubation. […]
*1 amine or outer side, *2 acyl side, *3 side chain or, on linkers, in order; H or OH if unused. Where a SMILES comes first, the peptide text is derived from it. Bridges are numbered along the chain shown (N, C = ends). [ ]: non-standard residue; d: D form. 2Nal = N[C@@H](Cc1ccc2ccccc2c1)C(=O)O; AEF = NCCOc1ccc(C[C@H](N)C(=O)O)cc1; X1 = O=C(Cc1ccc(CN[*:1])cc1)[*:2]; 3Pal = N[C@@H](Cc1cccnc1)C(=O)O; αMeL = CC(C)C[C@](C)(N)C(=O)O; β3hL = CC(C)C[C@H](N)CC(=O)O; Dab = NCC[C@H](N)C(=O)O
remaining at 4 h, 10 µM by entry:
Number only, in %; omit the unit.

Some solved cases for reference:
{"columns": ["COMPOUND", "EXPERIMENTAL READOUT", "UNIT INFO", "EXPERIMENTAL VALUE"],
 "data": [
  ["CC(C)C[C@]1(C)NC(=O)[C@H](Cc2ccc3ccccc3c2)NC(=O)[C@H](Cc2ccc(OCCN)cc2)NC(=O)[C@@H]2CCNC(=O)CC[C@H](NC(=O)[C@H](CO)NC(=O)Cc3ccc(cc3)CNC(=O)CC[C@@H](C(=O)N[C@@H](CCN)C(=O)N(C)[C@@H](Cc3cccnc3)C(N)=O)NC1=O)C(=O)N[C@@H](Cc1c[nH]c3ccccc13)C(=O)N[C@@H](CCC(N)=O)C(=O)N2", "remaining at 4 h, 10 µM", "%", 103],
  ["CNC(=O)[C@H](Cc1cccnc1)NC(=O)[C@H](CCO)NC(=O)[C@@H]1CCC(=O)NCc2ccc(cc2)CC(=O)N[C@@H](CO)C(=O)N[C@H]2CCC(=O)NCC[C@H](NC(=O)[C@H](CCC(N)=O)NC(=O)[C@H](Cc3c[nH]c4ccccc34)NC2=O)C(=O)N[C@@H](Cc2ccc(OCCN)cc2)C(=O)N[C@@H](Cc2ccc3ccccc3c2)C(=O)N[C@@](C)(CC(C)C)C(=O)N1", "remaining at 4 h, 10 µM", "%", 103],
  ["CC(C)C[C@@H]1NC(=O)[C@H](Cc2c[nH]c3ccccc23)NC(=O)[C@H](Cc2c[nH]c3ccccc23)NC(=O)[C@@H]2CSCC(=O)CSC[C@H](NC(=O)[C@H](CO)NC(=O)[C@@H](NC(=O)[C@@H](N)CC(=O)O)CSCC(=O)CSC[C@@H](C(=O)N[C@@H](CCCNC(=N)N)C(N)=O)NC1=O)C(=O)N[C@@H](Cc1c[nH]c3ccccc13)C(=O)N[C@@H](CCC(N)=O)C(=O)N2 (single isomer, unassigned) [I3 (isomer 3), H-DC(1a)SC(2a)WQC(2a)WWLC(1a)R-[NH2], reference compound]", "remaining at 4 h, 10 µM", "%", 0],
  ["CNC(=O)[C@H](Cc1cccnc1)NC(=O)[C@H](CCN)NC(=O)[C@@H]1CCC(=O)NCc2ccc(cc2)CC(=O)N[C@@H](C)C(=O)N[C@H]2CCC(=O)NCC[C@H](NC(=O)[C@H](CCC(N)=O)NC(=O)[C@H](Cc3c[nH]c4ccccc34)NC2=O)C(=O)N[C@@H](CCc2ccccc2)C(=O)N[C@@H](Cc2ccc3ccccc3c2)C(=O)NC(C)(C)C(=O)N1", "remaining at 4 h, 10 µM", "%", 102],
  ["CC(C)C[C@@H](CC(N)=O)NC(=O)[C@H](Cc1cccnc1)NC(=O)[C@H](CCN)NC(=O)[C@@H]1CCC(=O)NCc2ccc(cc2)CC(=O)N[C@@H](CO)C(=O)N[C@H]2CCC(=O)NCC[C@H](NC(=O)[C@H](CCC(N)=O)NC(=O)[C@H](Cc3c[nH]c4ccccc34)NC2=O)C(=O)N[C@@H](Cc2ccc(OCCN)cc2)C(=O)N[C@@H](Cc2ccc3ccccc3c2)C(=O)N[C@@](C)(CC(C)C)C(=O)N1 [Compound 11] ([X1]SEWQ[Dab][AEF][2Nal][αMeL]E[Dab][3Pal][β3hL]-NH2; lactam 3-6, N-10)", "remaining at 4 h, 10 µM", "%", 97]
]}

Consider the record given below.
Problem: Which remaining at 4 h, 10 µM is listed for "CC(C)C[C@]1(C)NC(=O)[C@H](Cc2ccc3ccccc3c2)NC(=O)[C@H](Cc2ccc(OCCN)cc2)NC(=O)[C@@H]2CCNC(=O)CC[C@H](NC(=O)[C@H](CO)NC(=O)Cc3ccc(cc3)CNC(=O)CC[C@@H](C(=O)N[C@@H](CCN)C(=O)N[C@H](Cc3cccnc3)C(N)=O)NC1=O)C(=O)N[C@@H](Cc1c[nH]c3ccccc13)C(=O)N[C@@H](CCC(N)=O)C(=O)N2" ?
Solution: 105
